Data origin, for the record: patent US8772480B2

target: UniProt:P42336; settings: read-out: PI3Kα AlphaScreen ® Ki
Sequence (P42336 whole entry): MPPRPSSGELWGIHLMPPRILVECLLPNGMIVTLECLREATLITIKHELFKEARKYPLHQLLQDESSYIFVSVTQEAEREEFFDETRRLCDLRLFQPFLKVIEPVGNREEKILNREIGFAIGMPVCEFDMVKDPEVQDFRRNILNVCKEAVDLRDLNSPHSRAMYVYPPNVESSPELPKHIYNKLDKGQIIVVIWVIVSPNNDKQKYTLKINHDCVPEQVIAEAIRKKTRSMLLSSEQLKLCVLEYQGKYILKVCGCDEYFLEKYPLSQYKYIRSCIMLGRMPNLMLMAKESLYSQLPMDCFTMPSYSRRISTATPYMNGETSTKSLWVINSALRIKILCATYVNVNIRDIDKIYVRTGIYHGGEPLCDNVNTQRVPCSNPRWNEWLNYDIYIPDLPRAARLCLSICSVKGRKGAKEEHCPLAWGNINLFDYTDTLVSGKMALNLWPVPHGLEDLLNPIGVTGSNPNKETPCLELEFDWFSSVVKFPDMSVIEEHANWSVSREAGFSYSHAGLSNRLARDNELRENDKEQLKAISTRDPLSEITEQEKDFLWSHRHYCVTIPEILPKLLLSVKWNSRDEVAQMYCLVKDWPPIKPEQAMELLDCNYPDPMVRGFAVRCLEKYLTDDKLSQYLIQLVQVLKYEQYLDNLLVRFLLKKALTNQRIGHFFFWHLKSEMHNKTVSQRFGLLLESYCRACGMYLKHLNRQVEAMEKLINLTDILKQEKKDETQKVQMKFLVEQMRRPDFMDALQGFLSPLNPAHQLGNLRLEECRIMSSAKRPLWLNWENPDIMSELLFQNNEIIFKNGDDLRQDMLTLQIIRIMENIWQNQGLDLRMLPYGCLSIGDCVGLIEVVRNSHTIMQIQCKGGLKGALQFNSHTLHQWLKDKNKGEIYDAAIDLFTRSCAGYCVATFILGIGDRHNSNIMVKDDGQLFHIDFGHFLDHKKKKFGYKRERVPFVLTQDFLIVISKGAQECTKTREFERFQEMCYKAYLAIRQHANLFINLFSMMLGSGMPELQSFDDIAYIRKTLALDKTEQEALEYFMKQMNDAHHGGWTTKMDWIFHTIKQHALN
Sequence (P27986 whole entry partner): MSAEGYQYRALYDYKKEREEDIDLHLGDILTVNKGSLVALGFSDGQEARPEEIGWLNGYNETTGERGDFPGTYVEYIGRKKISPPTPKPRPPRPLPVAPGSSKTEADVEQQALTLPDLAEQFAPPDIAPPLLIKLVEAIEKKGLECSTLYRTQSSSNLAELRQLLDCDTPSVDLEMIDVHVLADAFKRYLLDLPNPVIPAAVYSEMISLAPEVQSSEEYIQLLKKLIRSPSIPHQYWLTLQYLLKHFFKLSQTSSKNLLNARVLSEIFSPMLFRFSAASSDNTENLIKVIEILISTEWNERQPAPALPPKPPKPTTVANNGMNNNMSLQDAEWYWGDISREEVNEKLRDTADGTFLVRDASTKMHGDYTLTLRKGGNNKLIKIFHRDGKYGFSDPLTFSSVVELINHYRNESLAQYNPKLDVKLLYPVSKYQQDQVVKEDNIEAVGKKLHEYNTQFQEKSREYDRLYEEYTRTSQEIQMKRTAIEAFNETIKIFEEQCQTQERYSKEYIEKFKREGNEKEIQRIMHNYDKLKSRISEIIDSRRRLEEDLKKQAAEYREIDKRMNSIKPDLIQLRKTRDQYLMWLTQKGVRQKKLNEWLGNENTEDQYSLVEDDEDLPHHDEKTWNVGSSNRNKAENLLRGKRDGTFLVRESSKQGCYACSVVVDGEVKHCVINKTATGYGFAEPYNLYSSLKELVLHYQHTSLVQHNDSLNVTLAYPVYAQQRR
pKi: −log10 of the molar value.
Readout kind: pKi

Cc1nc(-c2cccnc2Nc2cccc3[nH]ncc23)c2cn[nH]c2n1 | 5.85
COc1ccc(Nc2ncc(CN3CC(O)C3)cc2-c2nc(C)nc(N)n2)cn1 | 7.23
COCCOc1cnc(Nc2cnc(C)c(NS(C)(=O)=O)c2)c(-c2nc(C)nc(N)n2)c1 | 7.15
Cc1nc(N)nc(-c2cc(CN3CCNCC3)cnc2Nc2ccc3[nH]cnc3c2)n1 | 7.16
Cc1nc(N)c(F)c(-c2cccnc2Nc2cccc3[nH]ncc23)n1 | 6.10
COc1ncc(Nc2ncc(C3(N)CC3)cc2-c2nc(C)nc(N)n2)cc1F | 7.13

(a) COc1ccc(Nc2ncc(CN3CCOCC3=O)cc2-c2nc(C)nc(N)n2)cn1
(b) COc1ccc(Nc2ncc(N3CCOCC3)cc2-c2nc(C)nc3[nH]cnc23)cn1
Input pair: a , b . Output: entry with lower pKi. State your choice using its label.
b
